Target: T1, human C1s (human, UniProt P09871 16-688)
T1 construct: Analyte in the Biacore assays; also called hC1s; serum-derived human C1s (CompTech)
T1 sequence: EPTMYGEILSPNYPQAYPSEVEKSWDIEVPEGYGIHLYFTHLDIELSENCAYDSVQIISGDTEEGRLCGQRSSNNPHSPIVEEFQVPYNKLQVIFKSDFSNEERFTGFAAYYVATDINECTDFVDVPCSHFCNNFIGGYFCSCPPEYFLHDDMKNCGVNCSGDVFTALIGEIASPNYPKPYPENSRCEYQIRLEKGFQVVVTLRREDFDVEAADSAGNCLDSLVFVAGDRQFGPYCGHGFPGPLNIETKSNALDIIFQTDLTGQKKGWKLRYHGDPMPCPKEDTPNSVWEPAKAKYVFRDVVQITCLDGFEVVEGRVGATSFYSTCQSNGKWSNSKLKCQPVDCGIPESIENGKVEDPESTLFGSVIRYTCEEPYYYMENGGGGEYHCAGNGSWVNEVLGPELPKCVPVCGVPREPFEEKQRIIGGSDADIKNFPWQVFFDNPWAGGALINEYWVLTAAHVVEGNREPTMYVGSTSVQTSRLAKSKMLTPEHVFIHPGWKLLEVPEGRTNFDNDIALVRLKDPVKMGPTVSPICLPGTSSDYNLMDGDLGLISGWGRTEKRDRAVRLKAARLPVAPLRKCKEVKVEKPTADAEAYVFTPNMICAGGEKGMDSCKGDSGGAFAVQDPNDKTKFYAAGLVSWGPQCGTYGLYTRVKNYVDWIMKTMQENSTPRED
Test: SPR; KD at pH 5.8 (1.2 mM Ca) over KD at pH 7.4 (1.2 mM Ca)
recorded_metric: KD 5(+)/7(+)
Could you respond with only the numeric value?

binder	KD 5(+)/7(+)
C1_IPN92H0145-SG4GK/IPN93L0024-SK1 (antibody, human IgG4 S228P, kappa, name in Kabat numbering, V domains shown, Substitutions from IPN009VH2, Kabat numbering; also called IPN92H0145/IPN93L0024) VH: EVMLVESGGGLVKPGGSLRLSCAASGFTFSNYAMSWVRQAPGKGLEWVATISSGGSRTYYLDSVKGRFTISRDNSKDTLYLQMNSLRAEDTALYYCARLFTGHAMDYWGQGTLVTVSS VL: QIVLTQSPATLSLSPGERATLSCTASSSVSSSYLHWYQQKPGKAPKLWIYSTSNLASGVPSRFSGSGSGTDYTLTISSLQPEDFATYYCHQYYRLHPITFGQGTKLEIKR	4.1

Field: next binder
Record C1_IPN92H0253-SG4GK/IPN93L0024-SK1 (antibody, human IgG4 S228P, kappa, name in Kabat numbering, V domains shown, Substitutions from IPN009VH2, Kabat numbering; also called IPN92H0253/IPN93L0024) VH: EVMLVESGGGLVKPGGSLRLSCAASGFTFSNYAMSWVRQAPGKGLEWVATISSGGSHTYYLDSVKGRFTISRDNSKDTLYLQMNSLRAEDTALYYCARLFTGHAMKYWGQGTLVTVSS VL: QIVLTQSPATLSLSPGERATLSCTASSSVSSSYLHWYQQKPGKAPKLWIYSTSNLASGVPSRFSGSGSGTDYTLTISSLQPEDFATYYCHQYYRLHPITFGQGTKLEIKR . Reported KD 5(+)/7(+): 12.6
